I'd appreciate it if you could supply melting point values for the items below.

For this molecule ( CC(c1cc(Cl)ccc1O)c1cc(Br)ccc1O (stereo not given) ), measured melting point is 167 °C

Item: COC(=O)c1ccc(NC(=O)c2cc(C(C)C)c(C(C)C)s2)cn1 | melting point: 207 to 208 °C

The molecule listed as CC(C)CC(CS)C(=O)Nc1cccc(C(=O)O)c1 (stereo not given) shows melting point equal to > 200 °C

// melting point value for COc1ccc(CCNC(=O)COc2ccc(C[C@H](OC)C(=O)O)cc2)cc1 : 97 to 98 °C

melting point measured on CC(C)(C)NS(=O)(=O)c1ccccc1-c1ccc(NC(=O)N(Cc2cccc(C(=N)N)c2)c2ccccc2)cc1 = 140 to 141 °C

====

Would you kindly list melting point for each of these compounds?

Lab note: measured melting point of C=CCOC(=O)c1ccc(NC(=O)C(=NO)c2ccc3c(c2)C(C)(C)CCC3(C)C)cc1 was 176 to 177 °C

GET /value?item= O=C(O)c1ccc2c(c1)nc(-c1ccc(OCc3cc(Cl)ccc3-c3ccc(Cl)cc3)cc1)n2C1CCCCC1 &field=melting point returns 243 to 244 °C

Per the record, Cc1ccccc1OCCOS(N)(=O)=O has melting point of 81.5 to 83 °C

Sure, the documented melting point for CCCC(CCC)N1CCc2c(C(=O)O)cc(F)cc2C1=O is 143 °C

Quick note, melting point for COc1ccc(CCCCCCCC(=O)O)cc1 landed at 42 to 43 °C

====

Please respond with reported melting point for every item in the list.

Briefly, melting point measured for COC1(c2ccc(Sc3ccc4c(ccc(=O)n4C)c3)s2)CCOCC1 : 119 to 120 °C

// melting point lookup, molecule = Cc1nc(NC(=O)C2CC2)sc1C(=O)NCc1ccccc1 , result: 241 to 243 °C

Reported melting point of O=C(c1cccc(C(F)(F)F)c1)c1ncccc1C(O)=NNc1c(Cl)cc(C(F)(F)F)cc1Cl : 92 to 96 °C

Kindly note the recorded melting point for CC(C)(C)c1ccc(C(=O)NC(=N)N)cc1 , which is 255 to 258 °C

Reported melting point for Cc1c(C(=O)c2cccc(C(F)(F)F)c2)oc2c(Br)cccc12 was 97 to 98 °C

Entry CCCCOc1ccc(S(=O)(=O)N2CCC(N(Cc3ccccc3)CC(O)COc3cccc4[nH]c5ccccc5c34)C2)cc1 (stereo not given) ; melting point = 73 to 76 °C

In plain terms, COCc1ccc2c(c1S(=O)(=O)NC(=O)Nc1nc(C)cc(OC)n1)S(=O)(=O)C(C)C2 (stereo not given) has a documented melting point of 215 to 216 °C

// recorded melting point for CCc1nc(O)c(I)c(Cl)n1 : > 230 °C

The molecule CC(C)CON=Cc1ccc2c(c1)c1cc(-c3ccc(Cl)cc3Cl)c(=O)n(C)c1n2C showed melting point equal to 100 to 110 °C

Measured melting point, COC(=O)N1CCC(c2ccccc2)C(O)C1 (stereo not given) : 139 to 140 °C

====

QUANTITY_NAME: melting point

melting point reading for COC(=O)CC(Cc1c[nH]c2ccccc12)(NC(=O)OC1C2CC3CC(C2)CC1C3)C(=O)O (stereo not given) : 108 to 109 °C

Short answer for O=S1(=O)N(CCN2CCN(c3ccc(F)cc3)CC2)c2cccc3c2N1CCC3 : melting point was 118 °C

// melting point value for COCC1CN=C(c2ccc(OCCCCCCCc3cc(C)no3)cc2)O1 (stereo not given) : 53 to 55 °C

Value of melting point reported for the compound COc1cccc(/C(C#N)=C/c2ccc(OC)c(OC3CCCC3)c2)c1 is 83 to 85 °C

# compound COC1(OC)SC(c2ccncc2)=C(C)NC1=O ; its melting point = 154 to 155 °C

====

QUANTITY_NAME: melting point

The compound listed as COc1ccc(-c2ccc(C(C)=NOCCOc3ccc(CC4SC(=O)NC4=O)cc3)cc2)c(OC)c1 (stereo not given) shows melting point equal to 186 to 188 °C

Entry under test: O=C(O)Cn1sc2ccccc2c1=O . Its melting point was 236 to 238 °C

So for CC1(C)CCc2c(ccc3c2C(=O)C=C(O)C3=O)O1 , the logged melting point turned out to be 184 to 187 °C

The compound CC(=O)Nc1ccc(C(=O)c2c(N)sc3c2CCN(Cc2ccccc2)C3)cc1 showed melting point equal to 119 to 120 °C

According to the records, this compound CCN(CC)CC(O)Cn1ccnc1[N+](=O)[O-] (stereo not given) displays melting point of 92 to 93 °C

Reported melting point of Cc1cc(O)c2c(c1O)C(=O)c1ccccc1C2=O : 177 to 178 °C

Query CCOc1ccc(C(=O)CCC(=O)Nc2cn(Cc3ccccc3)nc2-c2ccccc2)cc1 yields melting point of 138 to 141 °C

Memo: COc1cccc2c1CCC(C(=O)O)C2C(=O)O (stereo not given) , reported melting point: 200 to 201 °C

The compound Cn1c(Cl)c(Cl)c(C#N)c1Cl showed melting point equal to 113 to 114 °C

Just so you know, measured melting point for CCOc1nn(-c2cc(C(F)(F)F)ccn2)cc1CCCOc1cccc(CC(=O)O)c1 came out at 128 to 130 °C

====

QUANTITY_NAME: melting point

Input CCOC(=O)[C@H](CCc1ccccc1)N[C@@H](C)C(=O)N1N=C(c2ccc(SC)cc2)S[C@H]1C(=O)O . Output melting point: 163 to 164 °C

Documented melting point of CCCC(=O)c1cnc2c(OC)csc2c1Cl : 76 to 78 °C

CNC(=O)C(NC(=O)C(CC(C)C)C(CC(=O)OC)SC(C)=O)C(C)OCc1ccccc1 (centres undefined) has a reported melting point of 105 to 106 °C

Query COC(=O)N(C)CCc1ccc(N)c(CS(=O)(=O)c2ccccc2)c1 yields melting point of 95 to 96 °C

The compound listed as CCc1nn(CCOc2ccc(CC3SC(=O)NC3=O)cc2)c(=O)c2ccccc12 (centres undefined) shows melting point equal to 174 °C

For reference, reported melting point for CCOCCOc1cc(OC)c(C(CC(=O)Nc2cc(C(N)=O)ccc2C(C)(C)C)CC(C)C)cc1Cl (centres undefined) stands at 180 to 181 °C

The recorded melting point for Clc1cccc2c1Oc1ccccc1NC2 is 71 to 73 °C

The value of melting point measured for the compound COc1cc2cc(COC(C)=O)c(COC(C)=O)c(C=O)c2cc1OC turned out to be 154 to 155 °C

Record summary for CSc1sc(C(N)=O)c2c1-c1sc(C(N)=O)cc1CC2 : reported melting point = > 300 °C

// recorded melting point for CCNC(=O)NCCC1CCc2ccc(OC)cc21 (centres undefined) : 90 to 92 °C

Reported melting point for CCc1noc(-c2cn(-c3cccc(Oc4ccc(N)cc4)c3)cn2)n1 was 131 to 133 °C

Summary for this compound, CCOC(=O)c1c(C)nn(-c2ccc(Br)cc2)c1C : melting point is 71 to 73 °C

Value of melting point reported for the compound O=C(NC1CN2CCC1CC2)c1ccccc1Cc1ccccc1 (racemic) is 187 to 188 °C

Value of measured melting point for the entry CC1(C)[C@@H](CNC(=O)c2ccccc2F)CC[C@@]1(C)NCC(=O)N1C[C@@H](F)C[C@H]1C#N : 123 to 127 °C

Given item Cn1c(SC(Cl)=C(Cl)C#N)nnc1C(F)(F)F , the value recorded as its melting point is 90 to 94 °C

melting point reading for O=C(NNC(=O)c1ccncc1)Nc1cccc2c1C(=O)c1c-2n[nH]c1-c1ccc(N2CCNCC2)cc1 : 232 °C

Memo: COc1cccc2c1CCn1cc(-c3ccccc3)nc1C2OC1CCN(C)CC1 (centres undefined) , reported melting point: 73 °C

Entry CN(C)Cc1cc(C(=O)c2cccs2)cc(C2CCCCC2)c1O — recorded melting point = 105 to 106 °C

Given item COC(=O)C1=C(C)NC(C)=C(C(=O)OCCN2CCN(c3cccc(Cl)c3Cl)CC2)C1c1cccc([N+](=O)[O-])c1 (centres undefined) , the value recorded as its melting point is 189 to 190 °C

====

QUANTITY_NAME: melting point

Briefly, melting point measured for COc1ccc(C(=O)CCCCCBr)cc1OC : 38 to 40 °C

For reference, reported melting point for Cc1ccc(S(=O)(=O)OCC2CCn3c(nc4ccccc43)S2)cc1 (stereo unspecified) stands at 145 to 147 °C

For CCN(CC=C(Cl)Cl)C(=O)Nc1ccc(Cl)c(Cl)c1 the compound record lists melting point as 105 to 106 °C

Just so you know, measured melting point for CN1CCN(C(=O)Nc2ccc3c(c2Cl)C(c2ccccc2F)=NCC(=O)N3C)CC1 came out at 154 °C

melting point in this record for COC(=O)COc1nc(Cl)c(Cl)cc1Cl : 99 to 103 °C

Short answer for O=C1CC(c2cccc3oc4c(c23)CCCC4)CC(=O)O1 : melting point was 139 to 140 °C
